Target: HLA-B*3501 (human)
Assay: 125I-probe peptide inhibition, purified HLA
binders and their reported pIC50
Please note pIC50 is a logarithmic value: minus log10 of concentration in mol/L. Answer with that number alone.

The cases that follow already have their pIC50 on record.
// query Any idea what pIC50 was measured for FPAPAAPTPA [p53.74.F1 (10-mer)] ?
// result 7.55

// query Same read-out for FPLPSQAI [p53.33.F1] ?
// result 6.14

// query Same read-out for FPAPSWPI [p53.86.F118] ?
// result 8.32

Further cases:
// query Any idea what pIC50 was measured for FPAPSWPL [p53.86.F1] ?
// result 8.51

// query Same read-out for FPAPAPSWPL [p53.84.F1] ?
// result 8.29
